Biological target: Calcitonin gene-related peptide type 1 receptor (Homo sapiens, UniProt O60894+Q16602)
Sequence (Q16602 whole entry, one chain of several): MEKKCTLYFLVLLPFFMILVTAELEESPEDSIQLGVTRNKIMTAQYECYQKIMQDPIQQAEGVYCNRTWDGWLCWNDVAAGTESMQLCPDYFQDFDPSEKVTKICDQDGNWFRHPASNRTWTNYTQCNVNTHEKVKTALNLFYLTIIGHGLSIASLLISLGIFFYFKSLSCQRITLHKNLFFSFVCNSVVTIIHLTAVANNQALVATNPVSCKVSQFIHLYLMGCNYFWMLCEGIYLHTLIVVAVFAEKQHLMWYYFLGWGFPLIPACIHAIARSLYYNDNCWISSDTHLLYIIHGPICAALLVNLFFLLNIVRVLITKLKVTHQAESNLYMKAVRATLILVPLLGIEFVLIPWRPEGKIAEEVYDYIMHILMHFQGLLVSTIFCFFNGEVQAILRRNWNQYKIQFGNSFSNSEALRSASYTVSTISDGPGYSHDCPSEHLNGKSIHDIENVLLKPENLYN
Experiment: Binding affinity to CGRP receptor (unknown origin)
Overview of recorded Ki for various compounds
// return numeric value only (unit: nM, not printed)

Examples with their reported Ki follow.
# Compound, Assayed System, Ki / nM
data = [
    ("CCc1cc(CC(NC(=O)N2CCC(N3Cc4ccccc4NC3=O)CC2)C(=O)N2CCC(N3CCCCC3)CC2)cc2cn[nH]c12 (racemic)", "Calcitonin gene-related peptide type 1 receptor (Homo sapiens, UniProt O60894+Q16602)", 0.005),
    ("N#Cc1cc(C[C@@H](NC(=O)N2CCC(N3Cc4ccccc4NC3=O)CC2)C(=O)N2CCC(N3CCCCC3)CC2)cc2oc(=O)[nH]c12", "Calcitonin gene-related peptide type 1 receptor (Homo sapiens, UniProt O60894+Q16602)", 11),
    ("O=C(NC(Cc1cc(Cl)c2[nH]ncc2c1)C(=O)N1CCC(N2CCCCC2)CC1)N1CCC(N2Cc3ccccc3NC2=O)CC1 (racemic)", "Calcitonin gene-related peptide type 1 receptor (Homo sapiens, UniProt O60894+Q16602)", 0.011),
    ("O=C(N[C@H](Cc1cc(Br)c2[nH]c(=O)oc2c1)C(=O)N1CCC(N2CCCCC2)CC1)N1CCC(N2Cc3ccccc3NC2=O)CC1", "Calcitonin gene-related peptide type 1 receptor (Homo sapiens, UniProt O60894+Q16602)", 0.023),
    ("Cc1cc(CC(NC(=O)N2CCC(N3Cc4ccccc4NC3=O)CC2)C(=O)N2CCC(N3CCCCC3)CC2)cc2cn[nH]c12 (racemic)", "Calcitonin gene-related peptide type 1 receptor (Homo sapiens, UniProt O60894+Q16602)", 0.012),
]

Now look at this entry.
Problem: What measured Ki goes with CC(C)c1cc(CC(NC(=O)N2CCC(N3Cc4ccccc4NC3=O)CC2)C(=O)N2CCC(N3CCCCC3)CC2)cc2cn[nH]c12 (racemic) ?
Solution: 0.22

----------
Target: Calcitonin gene-related peptide type 1 receptor (Homo sapiens, UniProt O60894+Q16602)
Test: Binding affinity to CGRP receptor (unknown origin)
Overview of recorded pKi for various compounds
Lab note — pKi values are minus log10 of concentrations in M.

# Compound, pKi
data = [
    ("O=C(N[C@H](Cc1cc(I)c2[nH]c(=O)oc2c1)C(=O)N1CCC(N2CCCCC2)CC1)N1CCC(N2Cc3ccccc3NC2=O)CC1", 10.26),
]

Problem: What measured pKi goes with Cc1cc(C[C@@H](NC(=O)N2CCC(N3Cc4ccccc4NC3=O)CC2)C(=O)N2CCC(N3CCCCC3)CC2)cc2[nH]nnc12 ?
Solution: 10.82

Problem: What measured pKi goes with Cc1cc(C[C@H](NC(=O)N2CCC(N3Cc4ccccc4NC3=O)CC2)C(=O)N2CCC(N3CCCCC3)CC2)cc2cn[nH]c12 ?
Solution: 7.57

Problem: What measured pKi goes with O=C(N[C@H](Cc1cc2oc(=O)[nH]c2cc1Cl)C(=O)N1CCC(N2CCCCC2)CC1)N1CCC(N2Cc3ccccc3NC2=O)CC1 ?
Solution: 9.55

Problem: What measured pKi goes with Cc1cc(C[C@@H](NC(=O)N2CCC(N3Cc4ccccc4NC3=O)CC2)C(=O)N2CCC(N3CCCCC3)CC2)c(Cl)c2cn[nH]c12 ?
Solution: 10.49

Problem: What measured pKi goes with CCc1cc(CC(NC(=O)N2CCC(N3Cc4ccccc4NC3=O)CC2)C(=O)N2CCC(N3CCCCC3)CC2)cc2c(C)n[nH]c12 (racemic) ?
Solution: 10.32

Problem: What measured pKi goes with O=C(N[C@H](Cc1cc(Cl)c2[nH]c(=O)oc2c1)C(=O)N1CCC(N2CCCCC2)CC1)N1CCC(N2Cc3ccccc3NC2=O)CC1 ?
Solution: 10.41

Problem: What measured pKi goes with Cc1cc(C[C@@H](NC(=O)N2CCC(N3Cc4ccccc4NC3=O)CC2)C(=O)N2CCC(N3CCCCC3)CC2)cc2cn[nH]c12 ?
Solution: 11.14

Problem: What measured pKi goes with O=C(N[C@H](Cc1cc2oc(=O)[nH]c2cc1Br)C(=O)N1CCC(N2CCCCC2)CC1)N1CCC(N2Cc3ccccc3NC2=O)CC1 ?
Solution: 9.85
